Cited source for all entries: patent US20260027121A1

A2A adenosine receptor (hA2AR) (Homo sapiens, UniProt P29274) pKi data
Sequence (P29274 whole entry): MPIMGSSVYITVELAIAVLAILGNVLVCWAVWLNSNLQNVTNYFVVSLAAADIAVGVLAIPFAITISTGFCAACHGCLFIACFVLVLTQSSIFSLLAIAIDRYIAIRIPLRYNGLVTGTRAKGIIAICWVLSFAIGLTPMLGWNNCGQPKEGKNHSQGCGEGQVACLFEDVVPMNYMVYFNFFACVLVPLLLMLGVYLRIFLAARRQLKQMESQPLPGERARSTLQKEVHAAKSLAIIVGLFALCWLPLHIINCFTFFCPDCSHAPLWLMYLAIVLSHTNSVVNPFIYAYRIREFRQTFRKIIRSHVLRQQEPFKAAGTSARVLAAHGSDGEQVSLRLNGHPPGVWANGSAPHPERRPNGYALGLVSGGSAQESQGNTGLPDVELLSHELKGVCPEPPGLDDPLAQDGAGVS
Quick note: pKi values are minus log10 of concentrations in mol/L.

Look over these answered cases.
CCC#Cc1nc(NCc2cccc(Br)c2)c2ncn([C@@H]3SC[C@@H](O)[C@H]3O)c2n1 [Compound 9i]
6.95
CC#Cc1nc(NCc2cccc(F)c2)c2ncn([C@@H]3SC[C@@H](O)[C@H]3O)c2n1 [Compound 9b]
6.11
CCC#Cc1nc(NCc2cccc(Cl)c2)c2ncn([C@@H]3SC[C@@H](O)[C@H]3O)c2n1 [Compound 9h]
6.62
CCC#Cc1nc(N)c2ncn([C@@H]3SC[C@@H](O)[C@H]3O)c2n1 [Compound 9f]
7.62

Enquiry: Assign pKi to the following record: CC#Cc1nc(NCc2cccc(Cl)c2)c2ncn([C@@H]3SC[C@@H](O)[C@H]3O)c2n1 [Compound 9c]
Return: 6.66
